biological target: human CXCR4 (cell-expressed) (human, UniProt P61073 1-352); test: cell-based or functional assay
Sequence (P61073 whole entry): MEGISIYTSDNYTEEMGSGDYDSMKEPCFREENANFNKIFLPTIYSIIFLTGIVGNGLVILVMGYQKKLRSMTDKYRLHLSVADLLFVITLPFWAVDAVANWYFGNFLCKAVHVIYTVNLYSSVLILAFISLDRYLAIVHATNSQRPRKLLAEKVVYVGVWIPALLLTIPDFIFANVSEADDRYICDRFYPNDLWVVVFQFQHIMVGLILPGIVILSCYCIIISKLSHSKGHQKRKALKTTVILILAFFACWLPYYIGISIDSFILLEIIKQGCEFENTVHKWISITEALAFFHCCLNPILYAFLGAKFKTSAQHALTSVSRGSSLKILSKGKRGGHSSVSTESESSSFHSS
READOUT_KIND: IC50, cAMP HTRF assay, CXCR4 BacMam HEK-293 cells, 5.5 nM CXCL12 (nM)
Only the number, expressed in nM, is required.

Worked examples, 4 binders total:
CL-82495 (antibody, human IgG4 S228P, kappa, V domains shown, Tested in human IgG4-PE format) VH: QVQLVESGGGVVQPGRSLRLSCEASGFTLSSYGMHWVRQAPGKGLEWVAVIWNDGSNKYSADSVKGRFTISRDNSKNTLYLQMNRLRAEDTAVYYCARGGGYYGSGSHYRGYYYYGMDVWGQGTTVTVSS VL: DIQMTQSPSSLSASVGDRVTITCRASQGIRNDLGWYQQKPGKAPKRLIYAASSLQSGVPSRFSGSGSGTEFTLTISSLQPEDFATYYCLQHNSYPWTFGQGTKVEIKR ... 27
CL-82517 (antibody, human IgG4 S228P, kappa, V domains shown, Tested in human IgG4-PE format) VH: EVQLVESGGGLVKPGGSLRLSCAASGFTFSSYSMNWVRQAPGKGLEWVSSISSSRRYIYYADSVKGRFTISRDNAKNSLYLQMNSLRAEDTAVYYCARAYGQVAPYYYYGMDVWGQGTTVTVSS VL: AIQLTQSPSSLSASVGDRVTITCRASQGISSALAWYQQKPGKAPKLLIYDASSLESGVPSRFSGSGSGTDFTLTISSLQPEDFATYYCQQFNSYPLTFGGGTKVEIKR ... 34
CL-82562 (antibody, human IgG4 S228P, kappa, V domains shown, Tested in human IgG4-PE format) VH: QVQLVESGGGVVQPGRSLRLSCTASGFTFSNYAMHWVRQAPGKGLEWVAVISYDGSNKYCADSVKGRFTISRDNSKNTLYLQMNSLRAEDTAVYYCARGPLARRHYYYYGMDVWGQGTTVTVSS VL: DIQMTQSPSSLSASVGDRVTITCRASQGIRNDLGWYQQKPGKAPKRLIYGASSLQSGVPSRFSGSGSGTEFTLTISSLQPEDFATYYCLQHNSYPRTFGQGTKVEIKR ... 99
CL-82556 (antibody, human IgG4 S228P, kappa, V domains shown, Tested in human IgG4-PE format) VH: QVQLVESGGGVVQPGRSLRLSCAASGFTFYSYGMHWVRQAPGKGLEWVAVIWYGGTNKYYADSVKGRFTISRDNSKNTLYLQMNSLTAEDTAVYYCARGQLERRRGGLNIWGQGTMVTVSS VL: DIQMTQSPSSLSASVGDRVTITCRASQGVRDDLGWYQQKPGKAPKRLIYAASNLQSGVPSRFSGSGSGTEFTLTIGSLQPEDFATYYCLQHNSYPFTFGPGTKVDIKR ... 17

// moving on: another record for IC50, cAMP HTRF assay, CXCR4 BacMam HEK-293 cells, 5.5 nM CXCL12
Determine from records and report IC50, cAMP HTRF assay, CXCR4 BacMam HEK-293 cells, 5.5 nM CXCL12 for CL-82551 (antibody, human IgG4 S228P, kappa, V domains shown, Tested in human IgG4-PE format) VH: QVQLVQSGAEVKKPGASVKVSCKASGYTFTSYDINWVRQATGQGLEWMGWMNPNSGNTGYAQKFQGRVTMTRNTSISTAYMELSSLRSEDTAVYYCARGRGYYGSGSHYRGYYYYGLDVWGQGTTVTVSS VL: DIQMTQSPSTLSASVGDRVTITCRASQSISSWLAWYQQKPGKAPKVLIYKASSLKSGVPSRFSGSGSGTEFTLTVSSLQPDDFATYYCQQYNSYSWTFGQGTKVEIKR
39
